- METHOD_NOTES: in vivo
- Assay type: in vivo, mice
- CONDITION: male, CD-1, mouse, brain, ip, 10 mg/kg, mice, IP 10 mg/kg, brain, 30 min, individual animals; read-out: Brain concentration, Final (individual sample)
ENDPOINT_LABEL: concentration at 30 min (ng/g)
Give the value in ng/g but do not write ng/g after it.

Q: Given CCc1nc2c(C)nc(C)cc2n1-c1ccc(CCNC(=O)NS(=O)(=O)c2ccc(C)cc2)cc1 [Grapiprant, reference compound] , state its recorded concentration at 30 min.
Ans: 11.3

---

Recorded measurements of Cmax, one per entry
- METHOD_NOTES: in vivo
- Format: in vivo, mice
- CONDITION: male, CD-1, mouse, plasma, ip; 10 mg/kg i.p., mice
Just so you know, I need the unit written after the number.

Record excerpt, results attached:
* O=C(O)C1CCC2(CC1)CC(Nc1ncnc3[nH]c4c(F)cccc4c13)C2 (stereo not drawn) | 6670 ng/mL
* O=C([O-])C1CCC2(CC1)CC(Nc1ncnc3[nH]c4c(F)cccc4c13)C2.[Na+] (stereo not drawn) | 9910 ng/mL

# context switch: different compound, same Cmax
Q: Given CCc1nc2c(C)nc(C)cc2n1-c1ccc(CCNC(=O)NS(=O)(=O)c2ccc(C)cc2)cc1 [Grapiprant, reference compound] , state its recorded Cmax.
Ans: 834 ng/mL

---

- METHOD_NOTES: in vivo
- Assay type: in vivo, mice
- CONDITION: male, CD-1, mouse, plasma, iv, 10 mg/kg, mice, IV 10 mg/kg, plasma, 15 min; read-out: Plasma concentration C (mean)
ENDPOINT_LABEL: concentration at 15 min (ng/mL)
Give the value in ng/mL but do not write ng/mL after it.

Q: Given O=C([O-])C1CCC2(CC1)CC(Nc1ncnc3[nH]c4c(F)cccc4c13)C2.[Na+] (stereo not shown) [Compound 77] , state its recorded concentration at 15 min.
Ans: 17000

---

Recorded measurements of pKi, one per entry
- TARGET_SYSTEM: wild-type EP4R (Homo sapiens)
- Sequence (P35408 whole entry): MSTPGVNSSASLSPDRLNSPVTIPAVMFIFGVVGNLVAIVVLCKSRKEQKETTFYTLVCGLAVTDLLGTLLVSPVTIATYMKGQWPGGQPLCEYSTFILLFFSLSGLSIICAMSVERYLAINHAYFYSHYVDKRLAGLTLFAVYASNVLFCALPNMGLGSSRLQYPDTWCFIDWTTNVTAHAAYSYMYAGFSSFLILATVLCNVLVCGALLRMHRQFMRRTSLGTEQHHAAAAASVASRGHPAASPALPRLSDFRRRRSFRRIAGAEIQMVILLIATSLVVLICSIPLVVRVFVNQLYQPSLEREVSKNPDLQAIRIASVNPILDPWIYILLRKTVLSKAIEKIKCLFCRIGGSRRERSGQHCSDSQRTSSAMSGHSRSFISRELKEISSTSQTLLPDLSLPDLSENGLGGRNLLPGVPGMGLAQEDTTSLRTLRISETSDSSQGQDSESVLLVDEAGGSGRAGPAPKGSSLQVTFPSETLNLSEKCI
- METHOD_NOTES: cell-based
- CONDITION: calculated using the Cheng Prusoff equation; read-out: Arrestin-BRET Ki*
Units for pKi: none; it is -log10 of a concentration expressed in mol/L.

Record excerpt, results attached:
• O=C(O)C1CCC2(CC1)CC(Nc1ncnc3[nH]c4ccccc4c13)C2 (stereo not drawn) = 7.54
• CC(C(=O)Nc1cc(C#N)ccc1CCCC(=O)O)c1ccc(F)c2ccccc12 (stereo not drawn) [ONO-AE3-208, reference compound] = 8.89
• O=C(O)C1CCC2(CC1)CC(Nc1ncnc3sc4ccccc4c13)C2 (stereo not drawn) = 6.99
• O=C(O)C1CCC2(CC1)CC(Nc1ncnc3[nH]c4c(F)cccc4c13)C2 (stereo not drawn) = 7.81
• O=C(NC1CCCC(C(=O)O)CC1)c1csc(C2CCCCC2)c1 (stereo not drawn) = 6.09

# context switch: different molecule, same pKi
Q: Given O=C(O)C1CCC2(CC1)CC(Nc1ncnc3sc4c(c13)CCCC4)C2 (stereo not drawn) , state its recorded pKi.
Ans: 6.74

---

- METHOD_NOTES: in vivo
- Format: in vivo, mice
- CONDITION: male, CD-1, mouse, brain, ip, 10 mg/kg, mice, IP 10 mg/kg, brain, 30 min, mean of 3; read-out: Brain concentration C (mean)
ENDPOINT_LABEL: concentration at 30 min (ng/g)
Give the value in ng/g but do not write ng/g after it.

Q: Given CCc1nc2c(C)nc(C)cc2n1-c1ccc(CCNC(=O)NS(=O)(=O)c2ccc(C)cc2)cc1 [Grapiprant, reference compound] , state its recorded concentration at 30 min.
Ans: 11.1

---

- METHOD_NOTES: in vivo
- Format: in vivo, mice
- CONDITION: male, CD-1, mouse, brain, ip, 10 mg/kg, mice, IP 10 mg/kg, brain, 15 min, mean; read-out: Brain concentrations of cmpd 7827_0016 in mice following IP (10 mg/kg) administration, C
ENDPOINT_LABEL: concentration at 15 min
Just so you know, I need the unit written after the number.

Q: Given O=C(O)C1CCC2(CC1)CC(Nc1ncnc3[nH]c4c(F)cccc4c13)C2 (stereo not shown) , state its recorded concentration at 15 min.
Ans: 135 ng/g

---

- TARGET_SYSTEM: EP4R (Homo sapiens)
- Construct: Tango fusion cassette (only 'tango' is printed); expressed in transfected cells; host or cells: HTLA cells (tTA-dependent luciferase reporter, β-arrestin2-TEV fusion)
- METHOD_NOTES: biochemical
- Assay type: binding
- CONDITION: […], read-out: % displacement of 3HPGE2 at 10 µM, 10 µM compound vs 10 nM 3H-PGE2
ENDPOINT_LABEL: inhibition at 10 µM (%)
Give the value in % but do not write % after it.

* NC(=O)c1cc(C(=O)Nc2ccc(CC(=O)O)cc2)nn1-c1ccccc1 | -18.8
* COc1ccccc1CN(Cc1cccs1)C(=O)Cc1cccc(C(=O)O)c1 | 1.2
* O=C(Nc1cccc(-n2nn[nH]c2=O)c1)C1(c2ccccn2)CC1 | -8.5
* CCc1ccc(C(=O)Nc2cccc(-c3nnn[nH]3)c2)c(C)n1 | 19.3
* O=C(O)CC[C@H]1C[C@@H](NC(=O)C(O)c2ccc(Cl)cc2Cl)C1 (stereo partly drawn) | -13.7

Q: Given "COc1ccc(-c2cc(CS(=O)(=O)c3nnc(C)[nH]3)on2)cc1" , state its recorded inhibition at 10 µM.
Ans: -11.6

Q: Given CC(NC(=O)C1CC2(CC(C(=O)O)C2)C1)c1ccc(C(F)(F)F)s1 (stereo not drawn) , state its recorded inhibition at 10 µM.
Ans: -6.1

Q: Given CC(CN(C(=O)CCc1ccc2ccccc2c1)C1CC1)C(=O)O (stereo not drawn) , state its recorded inhibition at 10 µM.
Ans: -13.2

Q: Given Cc1nn(CC(F)(F)F)c(C)c1CC(=O)N(C1CC1)C(C)C(=O)O (stereo not drawn) , state its recorded inhibition at 10 µM.
Ans: -2.6

---

- METHOD_NOTES: in vivo
- Type: in vivo, mice
- CONDITION: male, CD-1, mouse, brain, ip, 10 mg/kg, mice, IP 10 mg/kg, brain, 480 min, individual animals; read-out: Brain concentration, Final (individual sample)
ENDPOINT_LABEL: concentration at 480 min (ng/g)
Give the value in ng/g but do not write ng/g after it.

Q: Given CCc1nc2c(C)nc(C)cc2n1-c1ccc(CCNC(=O)NS(=O)(=O)c2ccc(C)cc2)cc1 [Grapiprant, reference compound] , state its recorded concentration at 480 min.
Ans: 0

---

- TARGET_SYSTEM: BMPR2 (Homo sapiens)
- Sequence (Q13873 27-1038): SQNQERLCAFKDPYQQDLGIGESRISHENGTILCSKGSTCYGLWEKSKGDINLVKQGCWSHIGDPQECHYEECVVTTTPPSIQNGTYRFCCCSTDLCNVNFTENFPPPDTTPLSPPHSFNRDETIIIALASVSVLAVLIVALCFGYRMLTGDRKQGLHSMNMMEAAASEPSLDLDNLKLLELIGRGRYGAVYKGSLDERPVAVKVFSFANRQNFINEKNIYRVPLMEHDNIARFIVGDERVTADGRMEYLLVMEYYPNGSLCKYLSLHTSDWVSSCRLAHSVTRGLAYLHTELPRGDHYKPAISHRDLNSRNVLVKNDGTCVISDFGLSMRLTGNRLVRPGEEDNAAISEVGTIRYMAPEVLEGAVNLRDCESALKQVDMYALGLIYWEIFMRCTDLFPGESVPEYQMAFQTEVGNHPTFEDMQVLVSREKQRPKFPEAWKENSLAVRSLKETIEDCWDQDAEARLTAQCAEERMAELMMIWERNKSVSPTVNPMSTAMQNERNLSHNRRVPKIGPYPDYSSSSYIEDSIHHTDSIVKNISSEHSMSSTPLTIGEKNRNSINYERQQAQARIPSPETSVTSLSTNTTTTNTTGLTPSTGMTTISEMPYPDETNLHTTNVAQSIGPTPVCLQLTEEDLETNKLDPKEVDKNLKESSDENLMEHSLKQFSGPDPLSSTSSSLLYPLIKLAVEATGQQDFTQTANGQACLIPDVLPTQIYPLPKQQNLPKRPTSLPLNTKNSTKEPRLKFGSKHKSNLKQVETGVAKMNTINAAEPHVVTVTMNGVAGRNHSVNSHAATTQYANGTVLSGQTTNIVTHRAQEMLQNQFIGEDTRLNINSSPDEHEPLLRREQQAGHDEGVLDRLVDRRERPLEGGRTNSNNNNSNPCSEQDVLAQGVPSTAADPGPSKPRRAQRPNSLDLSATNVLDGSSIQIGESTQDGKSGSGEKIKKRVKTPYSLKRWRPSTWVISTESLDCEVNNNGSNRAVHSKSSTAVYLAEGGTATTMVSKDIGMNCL
ENDPOINT_LABEL: pKd
Units for pKd: none; it is -log10 of a concentration expressed in mol/L.

Q: Hi! What's the reported pKd for O=C(O)C1CCC2(CC1)CC(Nc1ncnc3[nH]c4c(F)cccc4c13)C2 (stereo not shown) on BMPR2 (Homo sapiens)?
Ans: 7.52

---

- METHOD_NOTES: in vivo
- Format: in vivo, mice
- CONDITION: male, CD-1, mouse, plasma, ip, 10 mg/kg, mice, IP 10 mg/kg, plasma, 240 min, mean of 3 animals; read-out: Plasma concentration C (mean)
ENDPOINT_LABEL: concentration at 240 min (ng/mL)
Give the value in ng/mL but do not write ng/mL after it.

Q: Given O=C([O-])C1CCC2(CC1)CC(Nc1ncnc3[nH]c4c(F)cccc4c13)C2.[Na+] (stereo not shown) , state its recorded concentration at 240 min.
Ans: 3590

---

- METHOD_NOTES: in vivo
- Format: in vivo, mice
- CONDITION: male, CD-1, mouse, plasma, ip, 10 mg/kg, mice, IP 10 mg/kg, plasma, 30 min, individual animals; read-out: Plasma concentration, Final
ENDPOINT_LABEL: concentration at 30 min (ng/mL)
Give the value in ng/mL but do not write ng/mL after it.

Q: Given O=C(O)C1CCC2(CC1)CC(Nc1ncnc3[nH]c4c(F)cccc4c13)C2 (stereo not shown) , state its recorded concentration at 30 min.
Ans: 4610

---

- METHOD_NOTES: in vivo
- Format: in vivo, mice
- CONDITION: male, CD-1, mouse, CSF, ip, 10 mg/kg, mice, IP 10 mg/kg, CSF, 120 min, mean; read-out: CSF concentrations of cmpd 7827_0016 in mice following IP (10 mg/kg) administration, C
ENDPOINT_LABEL: concentration at 120 min (ng/mL)
Give the value in ng/mL but do not write ng/mL after it.

Q: Given O=C(O)C1CCC2(CC1)CC(Nc1ncnc3[nH]c4c(F)cccc4c13)C2 (stereo not shown) , state its recorded concentration at 120 min.
Ans: 119
